B1: KLHL12 (parent)
chain: LDYTADEDGVWYSVAPMNVRRGLA

# Variants of: B1
# EXPERIMENTAL_DETAILS: protein stability index of a GFP-peptide fusion (GPS, HEK-293T) (PSI 1-6); higher = more stable;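 further: lentivirally expressed fusions sorted by FACS into six bins by GFP to DsRed ratio, PSI derived from sequencing read proportions per bin multiplied by bin number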
# CONDITION_LABEL: c terminus: a fixed tail appended
Entries and their protein stability index
Respond using a number only.

• A15K = 2.13

Ask | Give the reported protein stability index for this variant. Y12N
Reply | 3.45

Ask | Give the reported protein stability index for this variant. L1H
Reply | 2.67

Reference source for all entries: the supplement of paper PMC10567573
